- System: Escherichia coli
- reported_conditions: Concentration 32 ug.mL-1;; ASSAY_TEST Inhibition of Bacterial Growth; detection method Absorption (OD600); MEDIA CAMHB; plate type 384well; NBS; CORNING #3640; time 18 hr
- Description: Antibacterial activity against Escherichia coli ATCC 25922 (CO-ADD:GN_001); MIC in CAMBH media using NBS plates, by OD(600)
Entries with a potency or affinity are not part of this list.
Please go through the items and note down their Inhibition.
Number in %, nothing else.

IN: Consider the compound CCc1nnc2c(S(=O)(=O)N(Cc3ccccc3Cl)c3ccccc3)cccn12 and give its measured Inhibition.
OUT: -6.41

IN: Consider the compound CCc1ccccc1NC(=O)Cn1nc2c(SCc3ccc(Cl)cc3)nccn2c1=O and give its measured Inhibition.
OUT: -5.25

IN: Consider the compound CC(=O)c1ccc(NC(=O)Cn2nc3ccc(-c4ccc(C)cc4)nn3c2=O)cc1 and give its measured Inhibition.
OUT: -3.43

IN: Consider the compound Cc1ccc(-c2ccc3nn(Cc4ccc(Cl)cc4)c(=O)n3n2)cc1C and give its measured Inhibition.
OUT: -5.81

IN: Consider the compound COC(=O)c1ccc(NC(=O)Cn2nc3c4sc(N5CCCC5)nc4ncn3c2=O)cc1 and give its measured Inhibition.
OUT: -9.22
